- measurement.target: UniProtKB Q14524
- Sequence (Q14524 whole entry): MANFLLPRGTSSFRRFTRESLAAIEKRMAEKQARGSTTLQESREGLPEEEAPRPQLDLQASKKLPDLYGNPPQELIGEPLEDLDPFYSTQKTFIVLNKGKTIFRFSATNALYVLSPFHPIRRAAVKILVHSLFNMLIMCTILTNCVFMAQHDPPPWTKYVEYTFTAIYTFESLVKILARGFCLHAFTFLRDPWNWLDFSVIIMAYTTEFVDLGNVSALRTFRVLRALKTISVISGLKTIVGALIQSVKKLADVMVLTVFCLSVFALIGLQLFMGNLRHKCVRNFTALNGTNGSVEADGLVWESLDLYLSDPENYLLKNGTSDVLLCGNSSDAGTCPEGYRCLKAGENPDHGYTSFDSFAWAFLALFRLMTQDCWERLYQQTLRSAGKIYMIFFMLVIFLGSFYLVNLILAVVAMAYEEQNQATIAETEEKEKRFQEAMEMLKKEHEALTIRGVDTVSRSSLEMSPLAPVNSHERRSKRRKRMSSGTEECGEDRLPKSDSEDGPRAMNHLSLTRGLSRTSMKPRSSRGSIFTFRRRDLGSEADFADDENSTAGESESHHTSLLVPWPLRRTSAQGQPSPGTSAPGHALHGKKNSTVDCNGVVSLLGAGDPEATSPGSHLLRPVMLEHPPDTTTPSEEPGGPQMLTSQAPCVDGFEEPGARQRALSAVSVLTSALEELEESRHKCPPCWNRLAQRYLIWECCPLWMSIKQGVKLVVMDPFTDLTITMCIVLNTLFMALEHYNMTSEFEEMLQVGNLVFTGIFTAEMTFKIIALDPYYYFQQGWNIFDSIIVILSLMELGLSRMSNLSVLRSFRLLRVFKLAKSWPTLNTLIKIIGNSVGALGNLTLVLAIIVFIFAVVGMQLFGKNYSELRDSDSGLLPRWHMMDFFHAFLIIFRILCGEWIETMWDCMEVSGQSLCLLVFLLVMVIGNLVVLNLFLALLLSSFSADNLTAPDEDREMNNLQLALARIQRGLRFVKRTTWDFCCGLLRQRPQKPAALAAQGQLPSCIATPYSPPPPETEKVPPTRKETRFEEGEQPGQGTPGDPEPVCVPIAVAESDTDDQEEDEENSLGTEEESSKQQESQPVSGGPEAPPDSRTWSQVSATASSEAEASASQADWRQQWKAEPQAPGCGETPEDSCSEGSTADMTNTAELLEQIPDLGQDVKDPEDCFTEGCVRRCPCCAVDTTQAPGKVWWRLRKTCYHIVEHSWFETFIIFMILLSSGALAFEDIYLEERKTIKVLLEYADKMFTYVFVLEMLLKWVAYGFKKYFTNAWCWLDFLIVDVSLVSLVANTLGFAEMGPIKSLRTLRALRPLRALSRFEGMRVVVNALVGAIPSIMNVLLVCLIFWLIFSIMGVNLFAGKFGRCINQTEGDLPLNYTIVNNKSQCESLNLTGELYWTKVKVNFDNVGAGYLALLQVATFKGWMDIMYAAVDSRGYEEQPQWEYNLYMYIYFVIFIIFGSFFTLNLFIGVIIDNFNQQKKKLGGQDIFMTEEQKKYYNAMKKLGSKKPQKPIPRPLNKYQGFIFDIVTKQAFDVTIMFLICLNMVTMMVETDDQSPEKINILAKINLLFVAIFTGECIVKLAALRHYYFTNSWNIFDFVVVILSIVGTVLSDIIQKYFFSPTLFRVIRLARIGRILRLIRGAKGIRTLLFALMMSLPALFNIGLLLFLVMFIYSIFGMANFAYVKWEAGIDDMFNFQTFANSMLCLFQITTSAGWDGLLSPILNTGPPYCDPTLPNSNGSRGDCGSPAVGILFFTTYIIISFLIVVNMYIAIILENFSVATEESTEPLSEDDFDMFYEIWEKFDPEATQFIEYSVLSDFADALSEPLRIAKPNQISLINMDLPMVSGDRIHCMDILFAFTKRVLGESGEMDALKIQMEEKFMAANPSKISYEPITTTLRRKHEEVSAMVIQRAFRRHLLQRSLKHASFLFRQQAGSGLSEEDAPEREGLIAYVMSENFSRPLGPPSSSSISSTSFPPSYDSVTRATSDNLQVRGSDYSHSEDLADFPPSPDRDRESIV
- assay.name: Late INa screening assay (QPatch whole cell patch clamp, Tefluthrin-induced late current)
- Type: cell-based
- run.conditions: 1 uM; HEK293 hNav1.5; percent block of late INa
reported.metric: inhibition at 1 µM (%)
Kindly provide the numeric value in % only, without the unit symbol.

Below: 4 compounds and their reported inhibition at 1 µM.
compound="Fc1cc2onc(OCc3ncccn3)c2cc1-c1ccc2c(c1)OC(F)(F)O2 [Example 35]" assay_result=33.6
compound="FC(F)(F)Oc1ccc(-c2ccc3onc(OCc4cn5ccccc5n4)c3c2)cc1 [Example 51]" assay_result=38.8
compound="FC(F)(F)Oc1ccc(-c2ccc3onc(OCc4nccn4-c4ccccc4)c3c2)cc1 [Example 64]" assay_result=30.7
compound="CC(Oc1noc2ccc(-c3ccc(OC(F)(F)F)cc3)cc12)c1ccccn1 (centres unmarked) [Example 98]" assay_result=38.7

May I ask what inhibition at 1 µM has been recorded for Cc1cc(COc2noc3ccc(-c4ccc(OC(F)(F)F)cc4)cc23)on1 [Example 102] ?
43.1

May I ask what inhibition at 1 µM has been recorded for Cn1cncc1COc1noc2ccc(-c3ccc(OC(F)(F)F)cc3)cc12 [Example 50] ?
32.5

May I ask what inhibition at 1 µM has been recorded for FC(F)(F)c1ccc(-c2ccc3onc(OCc4ncccn4)c3c2)cc1 [Example 9] ?
58.9

May I ask what inhibition at 1 µM has been recorded for FC(F)(F)Oc1ccc(-c2ccc3onc(NCc4ncco4)c3c2)cc1 [Example 156] ?
62.8

May I ask what inhibition at 1 µM has been recorded for C[C@H](COc1noc2ccc(-c3ccc(OC(F)(F)F)cc3)cc12)N1CCCC1=O [Example 119] ?
51.2

May I ask what inhibition at 1 µM has been recorded for Cc1nccn1CCOc1noc2ccc(-c3ccc(OC(F)(F)F)cc3)cc12 [Example 57] ?
57.3

May I ask what inhibition at 1 µM has been recorded for CC(C)(C)OC(=O)COc1noc2ccc(-c3ccc(OC(F)(F)F)cc3)cc12 [Example 157] ?
36.9

May I ask what inhibition at 1 µM has been recorded for CC(COc1noc2ccc(-c3ccc(OC(F)(F)F)cc3)cc12)n1cccn1 (centres unmarked) [Example 68] ?
62.2

May I ask what inhibition at 1 µM has been recorded for COc1cc(OC(F)(F)F)ccc1-c1ccc2onc(OCc3ncccn3)c2c1 [Example 4] ?
62.9

May I ask what inhibition at 1 µM has been recorded for Cc1nccn1-c1noc2ccc(-c3ccc(OC(F)(F)F)cc3)cc12 [Example 138] ?
29.8

May I ask what inhibition at 1 µM has been recorded for FC(F)(F)Oc1ccc(-c2ccc3onc(NCC4CC4)c3c2)cc1 [Example 128] ?
42

May I ask what inhibition at 1 µM has been recorded for O=C1OCCN1CCOc1noc2ccc(-c3ccc(OC(F)(F)F)cc3)cc12 [Example 75] ?
59.5

May I ask what inhibition at 1 µM has been recorded for CC(=O)N1CCC[C@H]1COc1noc2ccc(-c3ccc(OC(F)(F)F)cc3)cc12 [Example 109] ?
65.7

May I ask what inhibition at 1 µM has been recorded for Cc1cc2onc(OCc3ncccn3)c2cc1-c1ccc(C(F)(F)F)cc1F [Example 28] ?
54.4

* * *

- measurement.target: hNaV1.2 (SCN2A) (Homo sapiens)
- Construct: expressed in transfected cells
- Sequence (Q99250 whole entry): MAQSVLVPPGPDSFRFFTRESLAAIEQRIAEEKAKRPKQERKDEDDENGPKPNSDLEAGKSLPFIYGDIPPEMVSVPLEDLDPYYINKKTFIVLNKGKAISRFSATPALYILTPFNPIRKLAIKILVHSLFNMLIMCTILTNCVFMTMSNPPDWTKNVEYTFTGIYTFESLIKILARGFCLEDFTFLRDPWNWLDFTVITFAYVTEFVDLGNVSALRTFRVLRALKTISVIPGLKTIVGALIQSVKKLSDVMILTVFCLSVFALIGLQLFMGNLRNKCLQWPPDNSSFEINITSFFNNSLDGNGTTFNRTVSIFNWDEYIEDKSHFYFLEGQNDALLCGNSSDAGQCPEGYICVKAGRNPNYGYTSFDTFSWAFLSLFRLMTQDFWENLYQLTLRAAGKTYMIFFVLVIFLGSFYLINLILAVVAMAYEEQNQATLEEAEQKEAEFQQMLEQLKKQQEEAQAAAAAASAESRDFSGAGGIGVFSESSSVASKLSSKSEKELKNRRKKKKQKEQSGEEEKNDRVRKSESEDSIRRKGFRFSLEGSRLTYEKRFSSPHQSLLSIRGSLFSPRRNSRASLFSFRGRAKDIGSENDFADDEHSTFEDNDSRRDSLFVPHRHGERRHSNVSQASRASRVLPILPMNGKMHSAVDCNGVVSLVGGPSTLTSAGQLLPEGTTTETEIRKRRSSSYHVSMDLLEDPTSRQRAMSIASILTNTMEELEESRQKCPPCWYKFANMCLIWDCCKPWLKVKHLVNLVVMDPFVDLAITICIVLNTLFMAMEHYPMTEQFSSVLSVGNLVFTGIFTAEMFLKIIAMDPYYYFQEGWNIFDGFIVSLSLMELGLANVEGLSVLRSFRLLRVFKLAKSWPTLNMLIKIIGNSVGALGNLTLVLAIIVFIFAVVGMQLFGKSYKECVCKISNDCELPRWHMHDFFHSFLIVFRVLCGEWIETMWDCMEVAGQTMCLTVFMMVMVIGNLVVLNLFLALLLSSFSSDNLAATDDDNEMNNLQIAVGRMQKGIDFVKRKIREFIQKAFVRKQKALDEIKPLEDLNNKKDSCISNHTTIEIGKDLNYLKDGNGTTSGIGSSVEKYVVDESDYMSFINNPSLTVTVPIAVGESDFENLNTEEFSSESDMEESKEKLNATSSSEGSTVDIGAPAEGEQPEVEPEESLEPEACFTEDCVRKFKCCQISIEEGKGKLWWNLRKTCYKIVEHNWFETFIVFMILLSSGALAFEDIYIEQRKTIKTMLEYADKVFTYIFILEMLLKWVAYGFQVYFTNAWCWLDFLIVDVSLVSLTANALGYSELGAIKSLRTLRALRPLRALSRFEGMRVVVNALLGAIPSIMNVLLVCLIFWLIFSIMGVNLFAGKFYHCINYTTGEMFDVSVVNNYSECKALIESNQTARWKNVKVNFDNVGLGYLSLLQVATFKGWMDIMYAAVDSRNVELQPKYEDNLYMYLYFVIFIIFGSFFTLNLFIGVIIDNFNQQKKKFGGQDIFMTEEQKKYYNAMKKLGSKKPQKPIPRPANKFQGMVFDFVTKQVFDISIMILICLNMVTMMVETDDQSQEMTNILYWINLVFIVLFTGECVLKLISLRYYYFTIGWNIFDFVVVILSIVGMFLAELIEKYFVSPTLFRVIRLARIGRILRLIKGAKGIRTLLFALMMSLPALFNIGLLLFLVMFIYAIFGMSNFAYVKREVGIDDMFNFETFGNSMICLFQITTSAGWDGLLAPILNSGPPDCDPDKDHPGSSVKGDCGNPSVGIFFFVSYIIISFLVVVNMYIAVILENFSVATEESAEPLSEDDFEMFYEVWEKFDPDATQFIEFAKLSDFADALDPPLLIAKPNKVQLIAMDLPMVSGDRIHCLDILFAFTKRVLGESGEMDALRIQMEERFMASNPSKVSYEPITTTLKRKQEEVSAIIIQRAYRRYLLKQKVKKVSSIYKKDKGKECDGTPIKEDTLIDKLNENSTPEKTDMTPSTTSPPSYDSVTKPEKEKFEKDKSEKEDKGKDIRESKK
- Sequence (Q07699 19-218 partner): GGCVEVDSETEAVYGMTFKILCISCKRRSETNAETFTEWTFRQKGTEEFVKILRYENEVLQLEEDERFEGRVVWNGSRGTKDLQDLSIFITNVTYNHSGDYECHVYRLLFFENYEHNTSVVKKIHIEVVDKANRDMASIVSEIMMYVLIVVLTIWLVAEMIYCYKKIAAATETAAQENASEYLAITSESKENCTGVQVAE
- Sequence (O60939 30-215 partner): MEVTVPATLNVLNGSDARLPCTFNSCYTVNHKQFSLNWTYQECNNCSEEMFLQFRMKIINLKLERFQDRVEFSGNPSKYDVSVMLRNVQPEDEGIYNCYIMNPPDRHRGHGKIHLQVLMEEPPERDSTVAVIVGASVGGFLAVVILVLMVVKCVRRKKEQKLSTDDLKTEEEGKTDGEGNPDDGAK
- assay.name: Use-dependent inhibition of the CNS Nav1.2 sodium channel
- Type: cell-based
- run.conditions: use-dependent block, 25 Hz, pulse 20, read-out: Nav1.2 UDB 25 Hz 10 uM
reported.metric: inhibition at 10 µM

structure_as_smiles=Cc1ccnc(COc2noc3ccc(-c4ccc(OC(F)(F)F)cc4)cc23)n1 assay_result="< 5%"
structure_as_smiles=FC(F)(F)Oc1ccc(-c2ccc3onc(OCCn4cnnc4)c3c2)cc1 assay_result=68%
structure_as_smiles=CC(C)(C)c1cn(-c2noc3ccc(-c4ccc(OC(F)(F)F)cc4)cc23)cn1 assay_result=57.1%
structure_as_smiles=FC(F)(F)Oc1ccc(-c2ccc3onc(OCc4cccnn4)c3c2)cc1 assay_result="< 5%"
structure_as_smiles=Fc1cc(-c2ccc3onc(OCc4ncccn4)c3c2)ccc1Cl assay_result="< 5%"
structure_as_smiles=CC1(COc2noc3ccc(-c4ccc(OC(F)(F)F)cc4)cc23)COC1 assay_result="< 5%"
structure_as_smiles=O=C1NCC[C@H]1Oc1noc2ccc(-c3ccc(OC(F)(F)F)cc3)cc12 assay_result=75.4%
structure_as_smiles=CCN(CC)C(=O)COc1noc2ccc(-c3ccc(OC(F)(F)F)cc3)cc12 assay_result=51%

Read the next record carefully.
May I ask what inhibition at 10 µM has been recorded for "FC(F)(F)Oc1ccc(-c2ccc3onc(-n4cnc(Cl)c4)c3c2)cc1" ?
< 5%
